- Tested on: Ba/F3 P210-BCR-ABL1 RUNX1-/mut (mouse)
- procedure.summary: drug sensitivity score (DSS) (DSS score); higher = more sensitive (stronger growth inhibition); extreme values may be limits of the assay
quantity.name: drug sensitivity score
Answer field: number only, no words.

mol=CO[C@H]1CC[C@H](N2C(=O)CNc3ncc(-c4ccc(C(C)(C)O)nc4)nc32)CC1 val=6.65
mol=CCCCOc1nc(N)c2c(n1)N(Cc1cccc(CN3CCCC3)c1)CC(=O)N2 val=3.25

Now take the following compound into account.
Fill in drug sensitivity score for record CO[C@H]1C[C@@H]2CC[C@@H](C)[C@@](O)(O2)C(=O)C(=O)N2CCCC[C@H]2C(=O)O[C@H]([C@H](C)C[C@@H]2CC[C@@H](O)[C@H](OC)C2)CC(=O)[C@H](C)/C=C(\C)[C@@H](O)[C@@H](OC)C(=O)[C@H](C)C[C@H](C)/C=C/C=C/C=C/1C 8.4

* * *

- Test system: Ba/F3 P210-BCR-ABL1 RUNX1wt/wt control (mouse)
- procedure.summary: drug sensitivity score (DSS) (DSS score); higher = more sensitive (stronger growth inhibition); extreme values may be limits of the assay
Returns Met if the recorded drug sensitivity score is greater than or equal to 9, and Not met otherwise.

compound=Nc1cc(F)ccc1NC(=O)/C=C/c1cnn(C/C=C/c2ccccc2)c1 label_class="Not met"
compound=CCCC(CCC)C(=O)O label_class="Not met"

Say whether O=C(Nc1cc(Cl)cc2c1[nH]c1cnccc12)c1cccnc1 shows drug sensitivity score of 9 or more. Not met

Has COc1cc2/c(=N/c3ccc(Br)cc3F)nc[nH]c2cc1OCC1CCN(C)CC1 a recorded drug sensitivity score greater than or equal to 9? Not met

* * *

- System: Ba/F3 P210-BCR-ABL1 RUNX1-/mut (mouse)
- procedure.summary: drug sensitivity score (DSS) (DSS score); higher = more sensitive (stronger growth inhibition); extreme values may be limits of the assay
Lab note: compare drug sensitivity score against 3. Equal or greater, write TRUE. Smaller, write FALSE.

Here's what some known entries look like.
compound="COC(=O)C[C@](O)(CCCC(C)(C)O)C(=O)O[C@@H]1C(OC)=C[C@]23CCCN2CCc2cc4c(cc2[C@H]13)OCO4 [Omacetaxine]" label_class=TRUE
compound="O=C(CCCCCCC(=O)Nc1ccc([C@H]2O[C@@H](CSc3nc(-c4ccccc4)c(-c4ccccc4)o3)C[C@@H](c3ccc(CO)cc3)O2)cc1)NO [Tubacin]" label_class=TRUE
compound="COc1cc(N2CCC(N3CCN(C)CC3)CC2)ccc1Nc1ncc(Cl)c(Nc2ccccc2P(C)(C)=O)n1 [Brigatinib]" label_class=FALSE
compound="CN1CCN(c2ccc3nc(-c4c(N)c5c(F)cccc5[nH]c4=O)[nH]c3c2)CC1 [Dovitinib]" label_class=FALSE
compound="O=C(Nc1c[nH]nc1-c1nc2ccc(CN3CCOCC3)cc2[nH]1)NC1CC1 [AT9283]" label_class=FALSE

drug sensitivity score >= 3 for COc1ccc(C[C@H](NC(=O)[C@H](C)NC(=O)CN2CCOCC2)C(=O)N[C@@H](Cc2ccccc2)C(=O)C2(C)CO2)cc1 (stereo in doubt) [ONX-0914] ? TRUE

Reported drug sensitivity score reaches at least 3 for Cc1cccc(CC(=O)N2CCc3c2ccc(-c2cn(C)c4ncnc(N)c24)c3F)n1 ? FALSE

Source listed as the supplement of paper PMC8024199.
